Cited source for all entries: patent US10138254B2

test: log P by HPLC on reversed-phase (C18) columns, OECD Guideline 117; format: physicochemical; details: reversed-phase (C18) HPLC column; acidic range, pH 2.7, 0.1% aqueous formic acid and acetonitrile; read-out: LogP[a]
Measured chromatographic logP by item

{"columns": ["MOLECULE", "chromatographic logP"],
 "data": [
  ["Cn1c(=O)cnn(-c2cnc3nc(-c4cccnc4)sc3c2)c1=O", 1.29],
  ["CCSc1ccccc1-c1cnc2nc(-c3cccnc3)sc2c1", 3.12],
  ["Cc1cc(C)c([S+]([O-])CC(F)(F)F)cc1-c1cnc2nc(-c3cccnc3)sc2c1 (stereo not drawn)", 2.54],
  ["Cc1ccccc1-c1cnc2nc(-c3cccnc3)sc2c1", 2.76],
  ["Cc1cc(C)c([S+]([O-])CC(F)(F)F)cc1-c1cnc2nc(-c3ccc[n+]([O-])c3)sc2c1 (stereo not drawn)", 1.91],
  ["Clc1cccc(-c2cnc3nc(-c4cccnc4)sc3c2)c1", 2.98],
  ["Cc1nn(-c2cnc3nc(-c4cccnc4)sc3c2)c(=S)n1C", 0.97],
  ["Cc1cc(F)c(-c2cnc3nc(-c4cccnc4)sc3c2)cc1SCC(F)(F)F", 3.83],
  ["CSCCNC(=O)c1cnc2nc(-c3cccnc3)sc2c1", 1.39]
]}

---

Measured logP[b] by item
Assay: log P by HPLC on reversed-phase (C18) columns, OECD Guideline 117
Type: physicochemical
Settings: neutral range, pH 7.8, 0.001 molar aqueous ammonium hydrogencarbonate and acetonitrile
Method: The log P values were determined in accordance with OECD Guideline 117 (EC Directive 92/69/EEC) by HPLC (high-performance liquid chromatography) using reversed-phase (RP) columns (C18), by the following methods: [a] […] Calibration is carried out using unbranched alkan-2-ones (having 3 to 16 carbon atoms) with known log P values (log P values determined on the basis of the retention times by linear interpolation between two successive alkanones).
RESULT_TYPE: logP[b]

{"columns": ["COMPOUND", "RESULT_TYPE", "VALUE"],
 "data": [
  ["c1ccc(-c2cnc3nc(-c4cccnc4)sc3c2)cc1 [Example 1]", "logP[b]", 2.56],
  ["Cn1cnn(-c2cnc3nc(-c4cccnc4)sc3c2)c1=S [Example 29]", "logP[b]", 1.07],
  ["c1ccc(Nc2cnc3nc(-c4cccnc4)sc3c2)cc1 [Example 24]", "logP[b]", 2.27],
  ["Clc1ccc(-c2cnc3nc(-c4cccnc4)sc3c2)cc1 [Example 8]", "logP[b]", 3.03],
  ["Cc1cccc(-c2cnc3nc(-c4cccnc4)sc3c2)c1 [Example 3]", "logP[b]", 2.95],
  ["CCSc1cccc(-c2cnc3nc(-c4cccnc4)sc3c2)c1 [Example 10]", "logP[b]", 3.36],
  ["CC[S+]([O-])c1ccc(-c2cnc3nc(-c4ccc[n+]([O-])c4)sc3c2)cc1 (stereo not shown) [Example 13]", "logP[b]", 1.85],
  ["Cc1ccc(-c2cnc3nc(-c4cccnc4)sc3c2)cc1 [Example 4]", "logP[b]", 2.96],
  ["Fc1ccccc1-c1cnc2nc(-c3cccnc3)sc2c1 [Example 5]", "logP[b]", 2.54],
  ["CCSc1ccc(-c2cnc3nc(-c4cccnc4)sc3c2)cc1 [Example 11]", "logP[b]", 3.37],
  ["Cc1ccc(-c2cnc3nc(-c4cccnc4)sc3c2)cc1[S+]([O-])CC(F)(F)F (stereo not shown) [Example 18]", "logP[b]", 2.34],
  ["CSc1cccc(-c2cnc3nc(-c4cccnc4)sc3c2)c1 [Example 9]", "logP[b]", 2.96],
  ["CC[S+]([O-])c1ccc(-c2cnc3nc(-c4cccnc4)sc3c2)cc1 (stereo not shown) [Example 12]", "logP[b]", 1.86],
  ["Clc1ccccc1-c1cnc2nc(-c3cccnc3)sc2c1 [Example 6]", "logP[b]", 2.78],
  ["FC(F)(F)c1cnn(-c2cnc3nc(-c4cccnc4)sc3c2)c1 [Example 28]", "logP[b]", 2.53],
  ["Cc1ccc(-c2cnc3nc(-c4cccnc4)sc3c2)cc1SCC(F)(F)F [Example 17]", "logP[b]", 3.68]
]}
